These entries and their values trace back to patent US20160200831A1.

- target_under_test: T1, human PAI-1 (human, UniProt P05121 24-402)
- T1 construct: also used for endogenous PAI-1 of human plasma, liver lysate and lung fibroblasts; also called hPAI-1; hPAI
- assay_method_text: Biacore, mAb on anti-human IgG Fc chip, 1:1 model
endpoint_name: kon (M⁻¹ s⁻¹)
Record the value in M⁻¹ s⁻¹, omitting the unit from your answer.

The examples below pair each entry with its known result.
Query string: Fill in kon for record A44-hv14 (antibody, V domains shown, humanized A44, HEK293; constant regions as for A44-hv1; also called LC4 x HC5b; variant 14) VH: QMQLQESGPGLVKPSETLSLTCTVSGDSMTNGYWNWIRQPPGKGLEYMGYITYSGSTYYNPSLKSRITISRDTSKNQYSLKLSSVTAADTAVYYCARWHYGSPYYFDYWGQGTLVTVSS VL: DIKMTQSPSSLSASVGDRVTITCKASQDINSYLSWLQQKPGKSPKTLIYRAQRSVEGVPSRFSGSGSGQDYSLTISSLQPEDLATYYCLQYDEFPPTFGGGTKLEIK
Result string: 1.25e+06

Query string: Supply measured kon of A44-hv13 (antibody, V domains shown, humanized A44, HEK293; constant regions as for A44-hv1; also called LC2 x HC5b; variant 13) VH: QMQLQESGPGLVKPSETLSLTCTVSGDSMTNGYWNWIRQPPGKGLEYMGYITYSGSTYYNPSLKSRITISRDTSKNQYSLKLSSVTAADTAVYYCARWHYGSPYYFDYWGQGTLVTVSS VL: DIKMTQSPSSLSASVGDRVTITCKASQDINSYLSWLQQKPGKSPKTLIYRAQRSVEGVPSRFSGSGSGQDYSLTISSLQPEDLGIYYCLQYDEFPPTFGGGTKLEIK in your reply.
Result string: 1.54e+06

Query string: For the binder A44-hv11 (antibody, V domains shown, humanized A44, HEK293; compared with a human IgG1 isotype control; constant regions as for A44-hv1; also called A44V11; A44v11) VH: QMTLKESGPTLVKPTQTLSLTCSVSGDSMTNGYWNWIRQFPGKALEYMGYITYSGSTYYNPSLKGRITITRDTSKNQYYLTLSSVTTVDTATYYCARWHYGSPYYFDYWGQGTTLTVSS VL: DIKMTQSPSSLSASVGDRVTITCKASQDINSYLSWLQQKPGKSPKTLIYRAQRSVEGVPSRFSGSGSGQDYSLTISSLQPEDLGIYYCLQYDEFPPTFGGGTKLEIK , give its reported kon.
Result string: 1.57e+06

New cases:
Query string: Give the measured kon for A44-hv12 (antibody, V domains shown, humanized A44, HEK293; constant regions as for A44-hv1; also called LC4 x HC3; variant 12) VH: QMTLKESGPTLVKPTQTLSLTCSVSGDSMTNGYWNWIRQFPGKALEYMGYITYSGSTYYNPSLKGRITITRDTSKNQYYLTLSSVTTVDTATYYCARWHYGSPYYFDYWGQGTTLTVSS VL: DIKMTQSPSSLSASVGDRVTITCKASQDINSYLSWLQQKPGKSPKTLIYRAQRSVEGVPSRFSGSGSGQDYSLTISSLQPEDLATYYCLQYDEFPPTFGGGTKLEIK
Result string: 1.62e+06
